system: HeLa; assay: Antiproliferative activity against human HeLa cells after 2 days; type: functional, cell-based; details: 48 h
reported property: IC50 (nM)

Below are worked cases with known answers.
COc1cc(C(=O)c2ccc(-c3ccccc3Cl)s2)cc(OC)c1OC    1600
COc1ccc(-c2ccc(C(=O)c3cc(OC)c(OC)c(OC)c3)s2)cc1OC    500
COc1ccccc1/C=C/C(=O)c1cc(OC)c(OC)c(OC)c1    1400

[a] COc1cc(C(=O)c2ccc(-c3ccccc3C)s2)cc(OC)c1OC
[b] COc1cccc(/C=C/C(=O)c2cc(OC)c(OC)c(OC)c2)c1
Kindly identify which of a and b has the larger recorded IC50 value. Write the label of whichever entry you select. b
(b: 3700 nM, a: 1600 nM)

[a] COc1cccc(-c2ccc(C(=O)c3cc(OC)c(OC)c(OC)c3)s2)c1
[b] COc1cc(C(=O)c2ccc(-c3ccccc3)s2)cc(OC)c1OC
[c] COc1cc(C(=O)c2ccc(-c3cccs3)s2)cc(OC)c1OC
Sort the 3 compounds by IC50; largest first, smallest last. Respond with an ordered listing of the labels, as requested. a, c, b
(a: 1400 nM, c: 470 nM, b: 310 nM)

[1] COc1cc(C(=O)c2ccc(-c3cccc([N+](=O)[O-])c3)s2)cc(OC)c1OC
[2] COc1cc(C(=O)c2ccc(-c3ccc(F)cc3)s2)cc(OC)c1OC
Kindly identify which of 1 and 2 has the larger recorded IC50 value. Write the label of whichever entry you select. 1

[a] COc1cc(C(=O)c2ccc(-c3ccsc3)s2)cc(OC)c1OC
[b] COc1cc(C(=O)c2ccc(-c3cccc(F)c3)s2)cc(OC)c1OC
Between the entries labeled a and b , whose measured IC50 is lower? Write the label of whichever entry you select. a
(a: 1100 nM, b: 1700 nM)

[P] COc1cc(C(=O)c2ccc(-c3ccc(Cl)cc3)s2)cc(OC)c1OC
[Q] COc1ccc(-c2ccc(C(=O)c3cc(OC)c(OC)c(OC)c3)s2)cc1
Kindly identify which of P and Q has the larger recorded IC50 value. Write the label of whichever entry you select. P

---

test system: HeLa; experiment: Antiproliferative activity against human HeLa cells after 2 days; type: functional, cell-based; conditions: 48 h
The entries below are paired with their reported IC50.

Below are worked cases with known answers.
COc1cc(C(=O)/C=C/c2ccc(Cl)cc2)cc(OC)c1OC    > 10 µM
COc1cc(C(=O)/C=C/c2ccc(F)cc2)cc(OC)c1OC    > 10 µM

Item under review: "COc1cc(C(=O)/C=C/c2ccccc2)cc(OC)c1OC" . Reported IC50? > 10 µM

The origin of these recorded values is ChEMBL document CHEMBL1150309.
